# Test system: KM12
# PROTOCOL: NCI tumour cell line growth inhibition, 48 h
The source made the active and inactive calls. No stated cut-off is given here; in the data, active = GI50 up to about 1.1 µM and inactive = higher.
Parameter call: string, one of active, inactive

// known answers, use as guide
CCOC(=O)NC(=O)c1cn(CCOCCOC(=O)NCCCCCCNC(=O)OCCOCCn2cc(C(=O)NC(=O)OCC)c(=O)[nH]c2=O)c(=O)[nH]c1=O :: inactive
CC(=O)n1c2ccccc2c2nc3nc(Oc4ccc(C)cc4)c4ccccc4c3cc21 :: inactive
CN(C)c1ccc(/N=N/c2ccccn2)cc1 :: inactive
CCOC(=O)c1nc2ccccc2nc1NCc1cc(OC)c(OC)c(OC)c1 :: inactive
COc1cc(OC)c2c(c1)C(=O)C(CC(C)O)=CC2=O (centres undefined) :: inactive
Cc1ccc(C)c(N2C(=O)C(=O)C(c3nc4ccccc4s3)/C(=N\c3cccc4c(=O)[nH][nH]c(=O)c34)C2=O)c1 (centres undefined) :: inactive

In the following, a different molecule is considered.
Recorded call for CCC(C)C1NC(=O)C2CCCN2C(=O)C(CC2CO2)OC(=O)CCNC(=O)C(C)N(C)C(=O)C(C(C)C)N(C)C1=O (centres undefined) ?
active
